Listing of entries alongside the reported pIC50.
Target under test: STING WT: His-TVMV-S-hSTING(155-341)-H232R (Homo sapiens, UniProt Q86WV6, H232R)
Construct: His-TVMV-S-hSTING(155-341)-H232R
Sequence (Q86WV6 with tags, fused parts or gaps H232R): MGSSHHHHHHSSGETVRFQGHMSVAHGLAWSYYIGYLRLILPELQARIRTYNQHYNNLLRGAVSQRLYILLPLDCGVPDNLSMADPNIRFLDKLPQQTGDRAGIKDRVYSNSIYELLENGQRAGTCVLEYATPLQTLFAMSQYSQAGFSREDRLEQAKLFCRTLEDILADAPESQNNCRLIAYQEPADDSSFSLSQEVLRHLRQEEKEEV
Test method notes: STING HTRF binding assay (time resolved FRET competition), STING WT
Test context: 20 nM His-tagged STING cytoplasmic domain, 200 nM fluorescein-labeled cGAMP analog probe, one hour; read-out: HTRF Binding Assays IC50 STING WT
pIC50: −log10 of the molar value.
Property label: pIC50

Compound	Target under test	Recorded value
Nc1ncnc2c1ncn2[C@@H]1O[C@@H]2COP(O)(=S)OC[C@@H]3[C@@H](COP(O)(=S)O[C@H]2[C@H]1F)C[C@H]3n1cnc2c(=O)[nH]cnc21 (single isomer, unassigned) [Example 5-3]	STING WT: His-TVMV-S-hSTING(155-341)-H232R (Homo sapiens, UniProt Q86WV6, H232R)	5.57
NC(=O)c1cccc2c1nnn2[C@@H]1O[C@@H]2COP(O)(=S)OC[C@@H]3[C@@H](COP(O)(=S)O[C@@H]1[C@@H]2F)C[C@H]3n1cnc2c(N)ncnc21 (single isomer, unassigned) [Example 11-2]	STING WT: His-TVMV-S-hSTING(155-341)-H232R (Homo sapiens, UniProt Q86WV6, H232R)	4.71

Where these numbers come from: patent US10744150B2
